Listing of recorded viability by entry.
assay: growth suppression of PTEN-deleted HCT116, pilot screen, cell-based, HCT116 clonal line, CellTiter-Glo (AID 824); details: 60 h, at 10 µM, stronger effect = lower value;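 further: 0% = 20 µM Hyamine control and 100% = vehicle cell control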
Records with an inconclusive call do not appear.
Kindly answer with a numeric value in %, unit omitted.

Entry Cc1ccc2c(c1)NCC(C(=O)NC1CCC(C)CC1)O2 (stereo unspecified) , viability reported as 91.4

Further cases:
Entry `Cc1[nH]n2c(=O)c3c(nc2c1-c1ccc(Cl)cc1)CCC3` , viability reported as 26.8

Entry `COCCn1c(=O)[nH]c2cc(C(=O)NC3CCCCCC3)ccc2c1=O` , viability reported as 87.6

Entry `CCN(CCCNC(=O)CN1C(=O)COc2ccccc21)c1ccccc1` , viability reported as 88.3

Entry O=C(NCc1ccco1)c1ccc2c(c1)N(Cc1ccccc1)C(=O)CS2=O (stereo unspecified) , viability reported as 82.6

Entry `C=CCn1c(SCc2ccc(F)cc2)nc2c1c(=O)[nH]c(=O)n2C` , viability reported as 89

====

Listing of recorded inhibition by entry.
assay: inhibitors of the yeast RAM network, pilot screen, dse1pr::URA3 reporter, 5-FOA selection (AID 869);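 further: 0% = DMSO wells with no growth and 100% = 10 µM 1-NA-PP1 with full growth; RAM network block rescues cells from 5-FOA so hits raise OD615 growth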; conditions: S. cerevisiae dse1pr::URA3 5-FOA growth, OD615, 2 d; at 10 µM; stronger effect = higher value; strain carries analog-sensitive mutant Cbk1 kinase
Kindly answer with a numeric value in %, unit omitted.

Entry CC1CCCCN1C(=O)CSCC(=O)Nc1nc(-c2cccs2)cs1 (stereo not drawn) , inhibition reported as 0.505

Entry `CNC(=O)c1cc2cc(OC)ccc2n1CCN(C)C` , inhibition reported as 2.31

Entry `O=C(Cn1cnc2c(nnn2-c2ccccc2)c1=O)N1CCOCC1` , inhibition reported as -0.26

Further cases:
Entry `CCn1cc(C(=O)NC2CCCCCC2)c(=O)c2cc(S(=O)(=O)N3CCCCC3)ccc21` , inhibition reported as 0.625

Entry `COc1cccc(N2CCN(C(=O)CN(C)S(=O)(=O)c3ccc4c(c3)CCC(=O)N4)CC2)c1` , inhibition reported as 0.59

Entry COc1ccc(OC)c(C2CC(=O)N3CN(c4ccccc4F)CSC3=C2C#N)c1 (stereo not drawn) , inhibition reported as 1.03

Entry `COc1ccccc1OCC(=O)Nc1ccc(S(=O)(=O)N2CCCCCC2)cc1` , inhibition reported as 2.08

Entry CC1CCCC(NC(=O)CSc2nnnn2C)C1C (stereo not drawn) , inhibition reported as 1.29

====

assay: Restrictive medium S. cerevisiae growth inhibition, OD615, pilot screen of yeast lifespan reduction project, restrictive growth control (AID 706); settings: OD615, 48 h, at 10 µM, stronger effect = higher value;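 further: modified DeaD lifespan yeast strain shifted to restrictive glucose medium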
Listing of recorded growth inhibition by entry.
Kindly answer with a numeric value in %, unit omitted.

See these solved cases before continuing.
Entry `OC1CCN(c2c3c(nc4cc(-c5cccc(F)c5)nn24)CCCC3)CC1` , growth inhibition reported as -11.2

Entry `COc1cc(C(=O)Oc2ccccc2N)cc(OC)c1OC` , growth inhibition reported as 11.3

Entry Cc1cc(C)cc(N(CC(=O)NC2CC3CCC2C3)S(C)(=O)=O)c1 (stereo unspecified) , growth inhibition reported as -10.6

Entry O=C(NCc1ccc2c(c1)OCO2)c1ccc(NC(=O)C2CCCO2)cc1 (stereo unspecified) , growth inhibition reported as -20.2

Entry `O=c1cc(CSc2nnc(-c3ccccc3)o2)c2ccccc2[nH]1` , growth inhibition reported as -3.43

Entry `Cn1c(NC(=O)c2ccc3c(c2)OCO3)cc(=O)n(C)c1=O` , growth inhibition reported as -2.67

Entry `COc1ccc(NC(=O)CSc2nnc(Cn3c(=O)sc4ccccc43)n2C)cc1` , growth inhibition reported as 7.49

Entry `Cc1cc(Nc2ccc(F)cc2C)n2nc(C)nc2n1` , growth inhibition reported as -5.02

Entry O=C(CSc1nc2c(c(=O)n1-c1ccc(Br)cc1)SCC2)NCC1CCCO1 (stereo unspecified) , growth inhibition reported as -8.53

Entry `O=C(Nc1cccc(F)c1)c1ccc(S(=O)(=O)N2CCCC2)cc1` , growth inhibition reported as 0

Now look at this entry.
Entry `COc1ccc(C(=O)Nc2ccc(S(=O)(=O)Nc3cc(C)nc(C)n3)cc2)c(OC)c1` , growth inhibition reported as -0.365

====

Listing of recorded growth inhibition by entry.
experiment: Restrictive medium S. cerevisiae growth inhibition, OD615, pilot screen of yeast lifespan reduction project, restrictive growth control (AID 706); conditions: OD615, 48 h, at 10 µM, stronger effect = higher value;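 further: modified DeaD lifespan yeast strain shifted to restrictive glucose medium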
Kindly answer with a numeric value in %, unit omitted.

Entry CC1CC(NC(=O)CCn2c(=O)oc3ccccc32)CC(C)(C)C1 (centres undefined) , growth inhibition reported as -2.1

Further cases:
Entry `NC(=O)CSc1oc(-c2ccc(F)cc2)nc1S(=O)(=O)c1ccccc1` , growth inhibition reported as -10.7

Entry `Cn1nc(-c2ccc(Cl)cc2)c2cc(C(=O)NCCCN3CCOCC3)sc21` , growth inhibition reported as 5.94

Entry CCn1c(C2CC(=O)N(c3cc(C)cc(C)c3)C2)nc2ccccc21 (centres undefined) , growth inhibition reported as -7

====

Listing of recorded growth inhibition by entry.
test: Restrictive medium S. cerevisiae growth inhibition, OD615, pilot screen of yeast lifespan reduction project, restrictive growth control (AID 706); conditions: OD615, 48 h, at 10 µM, stronger effect = higher value;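 further: modified DeaD lifespan yeast strain shifted to restrictive glucose medium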
Kindly answer with a numeric value in %, unit omitted.

Entry `C=CCC(=O)OCC(=O)Nc1ccc(Oc2ccccc2)cc1` , growth inhibition reported as 5

Entry CCn1c(C2CC(=O)N(Cc3ccccc3)C2)nc2ccccc21 (configuration not stated) , growth inhibition reported as 7.52

Entry CCS(=O)(=O)NCC(c1cccnc1)N1CCN(c2ccccc2OC)CC1 (configuration not stated) , growth inhibition reported as -3.32

Entry `COc1ccccc1-c1cc(C(=O)N2CCCCC2)no1` , growth inhibition reported as 11.2

Entry `COc1ccc(CN2CCN(C(=O)c3ccco3)CC2)cc1OCc1ccccc1` , growth inhibition reported as -18.8

Entry `Cn1c(CNC(=O)c2ccc(F)cc2)nc2ccccc21` , growth inhibition reported as -5.71

Now look at this entry.
Entry `C=CCn1c(SCC(=O)Nc2cc(C)nn2-c2ccccc2)nnc1C1CCCCC1` , growth inhibition reported as -6.5

====

test: OD615 S. cerevisiae growth inhibition, permissive medium, pilot counter-assay, permissive growth control for S. cerevisiae lifespan shortening project (AID 705); conditions: OD615, 24 h, at 10 µM, stronger effect = higher value
Experimental readout: growth inhibition (%)
Kindly answer with a numeric value in %, unit omitted.

Entry `CC(=O)Nc1nc2ccccc2n1CCN(C)C` , growth inhibition reported as -5.31

Entry `CN(C)S(=O)(=O)c1ccc(C(=O)Nc2ccc(Cl)cc2)cc1` , growth inhibition reported as -3.1

Entry `Cc1cc(C)nc(NS(=O)(=O)c2ccc(NC(=O)CCCN3C(=O)c4ccccc4C3=O)cc2)n1` , growth inhibition reported as -7.67

Entry `Cc1ccc(-c2nc(NC(=O)CSc3nnc(C)s3)ns2)cc1` , growth inhibition reported as -5.46

Entry COc1cc(OC)cc(OCC(O)Cn2cnc3cc(C)c(C)cc32)c1 (centres undefined) , growth inhibition reported as -4.53

Entry COc1ccc2ccccc2c1C1CC(=O)N2CN(C3CCCCC3)CSC2=C1C#N (centres undefined) , growth inhibition reported as 2.87

Entry `Cc1oc(C(C)(C)C)cc1C(=O)Nc1ccc(C(=O)O)cc1` , growth inhibition reported as 6.25

Entry `COCCNC(=O)COc1ccccc1Cl` , growth inhibition reported as -8.43

Entry O=C(Nc1ccccc1)C1CC(=O)N(C2CCCCC2)C1 (centres undefined) , growth inhibition reported as -8.56

Entry `Cc1c(C#N)c2ccccc2n1CCOc1ccccc1F` , growth inhibition reported as -5.92

Further cases:
Entry `Cc1ccc2oc(=O)c3cnn(CC(=O)N4CCCCCC4)c3c2c1` , growth inhibition reported as -11

Entry `COc1ccc(N(CC(=O)NCc2cccnc2)S(=O)(=O)c2c(C)nn(C)c2C)cc1` , growth inhibition reported as -19.9

Entry COc1ccc(OC)c(CN2C(=O)c3ccccc3C2C(=O)NCc2cccnc2)c1 (centres undefined) , growth inhibition reported as -6.83

====

test: RAM signaling pathway blockade in yeast – S. cerevisiae, Pdr1DBD-CYC8 efflux-inhibited sensitized strain, primary screen (AID 1298);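 further: 0% = DMSO untreated cells without growth and 100% = 10 µM 1-NA-PP1 full growth; higher means more yeast growth rescued from 5-FOA killing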; settings: S. cerevisiae cbk1-as DSE1-URA3 strain, 5-FOA growth OD615, 2 d; at 50 µM; stronger effect = higher value
Experimental readout: RAM network inhibition (%)
Kindly answer with a numeric value in %, unit omitted.

Entry `CCC(=O)N1CC2(C)CN(C(=O)CC)CC(C)(C1)C2` , RAM network inhibition reported as -0.16

Entry `Cn1c(C(=O)NCCN2CCCCCC2)cc2c(=O)n(C)c3ccccc3c21` , RAM network inhibition reported as 5.21

Entry `CCOC(=O)Cc1csc(NC(=O)c2c(-c3ccccc3)noc2C)n1` , RAM network inhibition reported as 1.54

Entry CC(=O)N1C(C(=O)O)CSC1c1ccc(C)cc1 (configuration not stated) , RAM network inhibition reported as -1.41

Entry `Cc1ccc(OCC(=O)O)c(-n2nc3ccccc3n2)c1` , RAM network inhibition reported as 2.69

Entry `O=C(NCCO)c1ccc(-c2nnc(N3CCOCC3)c3ccccc23)cc1` , RAM network inhibition reported as 3.24

Entry CCC1CCCCN1C(=O)CSc1nc(N)c(NC(=O)c2ccco2)c(=O)[nH]1 (configuration not stated) , RAM network inhibition reported as 2.2

Entry `CCOC(=O)c1c(N)sc(C(=O)N2CCCCCC2)c1C` , RAM network inhibition reported as -0.21
